molecules and their reported log10 vapour pressure (mmHg)
ASSAY ENDPOINT: log10 vapour pressure (mmHg)

1) CC1CN(C2CCCCCCCCCCC2)CC(C)O1 (stereo not given) : -5.44
2) Fc1cc(F)c(F)cc1F : 1.75
3) NCCCC[C@H](N)C(=O)O : -8.28
4) C[Si]1(C)O[Si](C)(C)O[Si](C)(C)O1 : 0.548
5) ClC(Cl)(Cl)c1ccccc1 : -0.383
6) C=CCc1ccc(OC)c(OC)c1 : -1.92
7) c1ccc2c(c1)ccc1ncccc12 : -4.25
8) CC=C(C)CC : 2.2
9) Clc1cc2c(c(Cl)c1Cl)Oc1cc(Cl)c(Cl)c(Cl)c1O2 : -10.4
10) CCOCc1ccccc1 : -0.0339
11) OC[C@H]1O[C@H](O)[C@H](O)[C@@H](O)[C@@H]1O : -13.1
12) C[Si]1(C)O[Si](C)(C)O[Si](C)(C)O[Si](C)(C)O[Si](C)(C)O[Si](C)(C)O1 : -1.65
13) CCCCCCS : 0.624
14) CCCCCCCCCCCCCCBr : -3.35
15) CCC(=O)OC : 1.92

====

molecules and their reported melting point
ASSAY ENDPOINT: melting point (°C)

1) O=C(O)c1cccc(C(=O)O)c1O : 244
2) FC1(F)C(F)(F)C(F)(F)C2(F)C(F)(F)C(F)(F)C(F)(F)C(F)(F)C2(F)C1(F)F (configuration not stated) : -10
3) CC1=CCC(C(C)C)=CC1 : -10
4) CCOC(=O)c1ccccc1[N+](=O)[O-] : 30
5) CC1(C)CCCCC1=O : -20.5
6) CCN1CCCC1CNC(=O)c1cc(S(=O)(=O)CC)ccc1OC (configuration not stated) : 182
7) CC(C)(C)NC(=O)COC(=O)c1ccccc1 : 112
8) CCCCCCCCCCCCCCCC(=O)O : 61.8
9) Clc1ccc2ccccc2n1 : 38
10) CC(=O)O[C@H]1C[C@@H]2CC[C@@H]3[C@H](CC[C@@]4(C)[C@H]3C[C@H]([N+]3(C)CCCCC3)[C@@H]4OC(C)=O)[C@@]2(C)C[C@@H]1N1CCCCC1.[Br-] : 228
11) c1ccc(CNc2[nH]cnc3ncnc2-3)cc1 : 233
12) O=C1CC(C(=O)O)=CO1 : 164

====

TEST SETTINGS: fish
ASSAY ENDPOINT: log10 BCF

1) Oc1c(Cl)cccc1Cl : 1.08
2) O=[N+]([O-])c1ccc(Cl)cc1Cl : 2.07
3) Clc1cc2ccccc2c2ccccc12 : 3.49
4) CC(O)CN(CC(C)O)CC(C)O (stereo not drawn) : -0.24
5) [Na][O]c1c(Cl)c(Cl)c(Cl)c(Cl)c1Cl : 2.78
6) Cc1cccc2ccccc12 : 1.73
7) Oc1c(Cl)c(Cl)cc(Cl)c1Cl : 2.15
8) O=[N+]([O-])c1ccc(Cl)c(Cl)c1 : 1.71
9) CC(C)(C)c1cc(-n2nc3ccc(Cl)cc3n2)c(O)c(C(C)(C)C)c1 : 3.57
10) O=[N+]([O-])c1ccccc1 : 0.67
11) CNc1ccc(C(=O)O)cc1 : 0.38
12) N#CCCNCCC#N : 0.08
13) N#CNC(=N)N : 0.49
14) c1ccc2c(c1)Cc1ccccc1-2 : 2.72
15) Clc1c(Cl)c(Cl)c2c(c1Cl)Oc1c(Cl)c(Cl)c(Cl)c(Cl)c1O2 : 3.12
16) S=C(SSSSC(=S)N1CCCCC1)N1CCCCC1 : 1.23
17) COc1c(Cl)ccc(Cl)c1Cl : 2.52
18) CCC(C)c1ccccc1OC(=O)NC (stereo not drawn) : 1.41
19) Oc1ccc(-c2ccccc2)cc1 : 1.59
20) Clc1cc2c(oc3c(Cl)c(Cl)c(Cl)cc32)c(Cl)c1Cl : 3.98
21) Nc1ccc2c(O)cc(S(=O)(=O)O)cc2c1 : 0.38
22) O=C(O)Cc1cccc2ccccc12 : 0.47
23) O=C(NC(=O)c1c(F)cccc1F)Nc1ccc(Cl)cc1 : 2.2
24) Nc1ccc(Cl)cc1[N+](=O)[O-] : 1.04
25) Clc1cc(-c2cc(Cl)c(Cl)c(Cl)c2)cc(Cl)c1Cl : 5.97
26) ClC(Cl)=C(Cl)c1c(Cl)c(Cl)c(Cl)c(Cl)c1Cl : 3.91
27) C=Cc1ccccc1 : 1.13
28) ClC1=C(Cl)C2(Cl)C3C(Cl)C=CC3C1(Cl)C2(Cl)Cl (stereo not drawn) : 3.94
29) Cc1cc(O)ccc1Cl : 0.93
30) CCCCCc1ccc2c(c1)C(=O)c1ccccc1C2=O : 2.94
31) CC1CCC(C(C)C)C(O)C1 (stereo not drawn) : 1.03
32) Nc1ccc(Cl)cc1Cl : 1.36
33) CC1CNC(=S)N1 (stereo not drawn) : 1
34) O=S1(=O)CCCC1 : 0.85
35) Nc1ccccc1 : 0.21
36) CCCCC(CC)COP(=O)(OCC(CC)CCCC)OCC(CC)CCCC (stereo not drawn) : 1.7
37) Nc1c(Cl)cc(Cl)cc1Cl : 2
38) Clc1cccc2cccc(Cl)c12 : 3.79
39) COC(=O)Nc1nc2ccccc2[nH]1 : 0.4
40) CCCCC(CC)COP(=O)(Oc1ccccc1)Oc1ccccc1 (stereo not drawn) : 2.49
41) OCc1ccc(Cl)c(Cl)c1 : 0.54
42) CCCCOC(=O)c1ccccc1C(=O)OCCCC : 2.22
43) CC(=O)CC(=O)Nc1ccc(-c2ccc(NC(=O)CC(C)=O)c(C)c2)cc1C : 0.2
44) Clc1c(Cl)c(Cl)c2ccccc2c1Cl : 3.7
45) CCc1cc(C(C)(C)C)c(O)c(C(C)(C)C)c1 : 3.46
46) CCc1c(Br)c(Br)c(Br)c(Br)c1Br : 2.52
47) O=[N+]([O-])c1cc(S(=O)(=O)Nc2ccccc2)ccc1Nc1ccccc1 : 1.61
48) COP(=S)(OC)Oc1ccc(SC)c(C)c1 : 2.52
49) Nc1cc(S(=O)(=O)O)cc2cc(S(=O)(=O)[O][Na])cc(O)c12 : 0.46
50) CCN(CC)C(=O)SCc1ccc(Cl)cc1 : 2.23
51) Brc1cc(Br)c(Oc2cc(Br)c(Br)cc2Br)c(Br)c1 : 6.15
52) CCCCC(CC)COC(=O)CC(C(=O)OCC(CC)CCCC)S(=O)(=O)O (stereo not drawn) : 0.97
53) O=P(Oc1ccccc1)(Oc1ccccc1)Oc1ccccc1 : 2.28
54) BrCC(CBr)(CBr)CBr : 1.94
55) Nc1cc(Cl)c(Cl)c(Cl)c1 : 2.36
56) CC(C)(c1ccc(O)cc1)c1ccc(O)cc1 : 1.64
57) O=[N+]([O-])c1cc(Cl)cc(Cl)c1O : 1.32
58) O=C(c1ccccc1)c1ccccc1 : 1.08

All values here come from the OPERA property sets (Mansouri et al. 2018).
